# Protocol description: activity coefficient (dimensionless); of the first substance listed, at infinite dilution; xn = mol fraction of the nth substance listed
# Experimental parameters: 313.3 K; 101 kPa; Liquid; Chromatography; x1 = 0
Hi! Just check whether activity coefficient is below 5. Below gives T, equal or above gives F.

A record lists CCCCCC [hexane] + CC[n+]1ccccc1.O=S(=O)([N-]S(=O)(=O)C(F)(F)F)C(F)(F)F . Is its activity coefficient below 5?
F

A record lists CCCCC [pentane] + CC[n+]1ccccc1.O=S(=O)([N-]S(=O)(=O)C(F)(F)F)C(F)(F)F . Is its activity coefficient below 5?
T

A record lists CCCCCCC [heptane] + CC[n+]1ccccc1.O=S(=O)([N-]S(=O)(=O)C(F)(F)F)C(F)(F)F . Is its activity coefficient below 5?
F

A record lists C#CCCCC [1-hexyne] + CCCC[n+]1ccccc1.O=S(=O)([N-]S(=O)(=O)C(F)(F)F)C(F)(F)F . Is its activity coefficient below 5?
T

A record lists CC1CCCCC1 [methylcyclohexane] + CC[n+]1ccccc1.O=S(=O)([N-]S(=O)(=O)C(F)(F)F)C(F)(F)F . Is its activity coefficient below 5?
F

A record lists C#CCCCCC [1-heptyne] + CCCC[n+]1ccccc1.O=S(=O)([N-]S(=O)(=O)C(F)(F)F)C(F)(F)F . Is its activity coefficient below 5?
F

A record lists CCCO [propan-1-ol] + CCCC[n+]1ccccc1.O=S(=O)([N-]S(=O)(=O)C(F)(F)F)C(F)(F)F . Is its activity coefficient below 5?
T

A record lists CCCCCCCCC [nonane] + CC[n+]1ccccc1.O=S(=O)([N-]S(=O)(=O)C(F)(F)F)C(F)(F)F . Is its activity coefficient below 5?
F

A record lists CCCCCCCC [octane] + CC[n+]1ccccc1.O=S(=O)([N-]S(=O)(=O)C(F)(F)F)C(F)(F)F . Is its activity coefficient below 5?
F

A record lists C1CCCCC1 [cyclohexane] + CC[n+]1ccccc1.O=S(=O)([N-]S(=O)(=O)C(F)(F)F)C(F)(F)F . Is its activity coefficient below 5?
F

A record lists Cc1ccc(C)cc1 [1,4-dimethylbenzene] + CC[n+]1ccccc1.O=S(=O)([N-]S(=O)(=O)C(F)(F)F)C(F)(F)F . Is its activity coefficient below 5?
T

----------
# Protocol description: activity coefficient (dimensionless); of the first substance listed, at infinite dilution; xn = mol fraction of the nth substance listed
# Experimental parameters: 333.1 K; 101 kPa; Liquid; Chromatography; x1 = 0
Assign activity coefficient to each entry below.
Answer with a number only.

Please indicate activity coefficient recorded for Cc1ccc(C)cc1 [1,4-dimethylbenzene] + CC[n+]1ccccc1.O=S(=O)([N-]S(=O)(=O)C(F)(F)F)C(F)(F)F
3.08

Please indicate activity coefficient recorded for Cc1ccccc1C [1,2-dimethylbenzene] + CC[n+]1ccccc1.O=S(=O)([N-]S(=O)(=O)C(F)(F)F)C(F)(F)F
2.7

Please indicate activity coefficient recorded for CO [methanol] + CCCC[n+]1ccccc1.O=S(=O)([N-]S(=O)(=O)C(F)(F)F)C(F)(F)F
1.39

Please indicate activity coefficient recorded for CCCO [propan-1-ol] + CCCC[n+]1ccccc1.O=S(=O)([N-]S(=O)(=O)C(F)(F)F)C(F)(F)F
2.25

----------
# Protocol description: activity coefficient (dimensionless); of the first substance listed, at infinite dilution; xn = mol fraction of the nth substance listed
# Experimental parameters: 312.7 K; 101 kPa; Liquid; Chromatography; x1 = 0
Recorded endpoint: activity coefficient

Please indicate activity coefficient recorded for CCCCCCCC [octane] + CCCCC[n+]1ccccc1.O=S(=O)([N-]S(=O)(=O)C(F)(F)F)C(F)(F)F
22.8

Please indicate activity coefficient recorded for CCCCCC [hexane] + CCCCC[n+]1ccccc1.O=S(=O)([N-]S(=O)(=O)C(F)(F)F)C(F)(F)F
8.36

Please indicate activity coefficient recorded for CCCCCCC [heptane] + CCCCC[n+]1ccccc1.O=S(=O)([N-]S(=O)(=O)C(F)(F)F)C(F)(F)F
14.6

Please indicate activity coefficient recorded for CC1CCCCC1 [methylcyclohexane] + CCCCC[n+]1ccccc1.O=S(=O)([N-]S(=O)(=O)C(F)(F)F)C(F)(F)F
9.39

----------
# Protocol description: activity coefficient (dimensionless); of the first substance listed, at infinite dilution; xn = mol fraction of the nth substance listed
# Experimental parameters: 343.2 K; 101 kPa; Liquid; Chromatography; x1 = 0
Hi! Just check whether activity coefficient is below 2. Below gives condition met, equal or above gives condition not met.

A record lists CCc1ccccc1 [ethylbenzene] + CCCC[n+]1ccccc1.O=S(=O)([N-]S(=O)(=O)C(F)(F)F)C(F)(F)F . Is its activity coefficient below 2?
condition not met

A record lists Cc1ccccc1C [1,2-dimethylbenzene] + CCCC[n+]1ccccc1.O=S(=O)([N-]S(=O)(=O)C(F)(F)F)C(F)(F)F . Is its activity coefficient below 2?
condition not met

A record lists Cc1ccccc1 [toluene] + CCCC[n+]1ccccc1.O=S(=O)([N-]S(=O)(=O)C(F)(F)F)C(F)(F)F . Is its activity coefficient below 2?
condition met

A record lists CO [methanol] + CCCCC[n+]1ccccc1.O=S(=O)([N-]S(=O)(=O)C(F)(F)F)C(F)(F)F . Is its activity coefficient below 2?
condition met

A record lists CCO [ethanol] + CCCCC[n+]1ccccc1.O=S(=O)([N-]S(=O)(=O)C(F)(F)F)C(F)(F)F . Is its activity coefficient below 2?
condition met

A record lists C#CCCC [1-pentyne] + CCCCC[n+]1ccccc1.O=S(=O)([N-]S(=O)(=O)C(F)(F)F)C(F)(F)F . Is its activity coefficient below 2?
condition met

----------
# Protocol description: activity coefficient (dimensionless); of the first substance listed, at infinite dilution; xn = mol fraction of the nth substance listed
# Experimental parameters: 353.3 K; 101 kPa; Liquid; Chromatography; x1 = 0
Hi! Just check whether activity coefficient is below 3. Below gives TRUE, equal or above gives FALSE.

A record lists Cc1cccc(C)c1 [1,3-dimethylbenzene] + CCCCC[n+]1ccccc1.O=S(=O)([N-]S(=O)(=O)C(F)(F)F)C(F)(F)F . Is its activity coefficient below 3?
TRUE

A record lists C#CCCCCC [1-heptyne] + CCCCC[n+]1ccccc1.O=S(=O)([N-]S(=O)(=O)C(F)(F)F)C(F)(F)F . Is its activity coefficient below 3?
FALSE

A record lists Cc1ccccc1 [toluene] + CCCC[n+]1ccccc1.O=S(=O)([N-]S(=O)(=O)C(F)(F)F)C(F)(F)F . Is its activity coefficient below 3?
TRUE

A record lists CCCCC [pentane] + CCCCC[n+]1ccccc1.O=S(=O)([N-]S(=O)(=O)C(F)(F)F)C(F)(F)F . Is its activity coefficient below 3?
TRUE

A record lists CCc1ccccc1 [ethylbenzene] + CCCC[n+]1ccccc1.O=S(=O)([N-]S(=O)(=O)C(F)(F)F)C(F)(F)F . Is its activity coefficient below 3?
TRUE

----------
# Protocol description: activity coefficient (dimensionless); of the first substance listed, at infinite dilution; xn = mol fraction of the nth substance listed
# Experimental parameters: 333 K; 101 kPa; Liquid; Chromatography; x1 = 0
Assign activity coefficient to each entry below.
Answer with a number only.

Please indicate activity coefficient recorded for C1CCCCC1 [cyclohexane] + CC[n+]1ccccc1.O=S(=O)([N-]S(=O)(=O)C(F)(F)F)C(F)(F)F
6.76

Please indicate activity coefficient recorded for C#CCCCC [1-hexyne] + CC[n+]1ccccc1.O=S(=O)([N-]S(=O)(=O)C(F)(F)F)C(F)(F)F
4.18

Please indicate activity coefficient recorded for CCCCC [pentane] + CCCC[n+]1ccccc1.O=S(=O)([N-]S(=O)(=O)C(F)(F)F)C(F)(F)F
3.44

Please indicate activity coefficient recorded for CCCCCC [hexane] + CC[n+]1ccccc1.O=S(=O)([N-]S(=O)(=O)C(F)(F)F)C(F)(F)F
6.86

----------
# Protocol description: activity coefficient (dimensionless); of the first substance listed, at infinite dilution; xn = mol fraction of the nth substance listed
# Experimental parameters: 353 K; 101 kPa; Liquid; Chromatography; x1 = 0
Grouping key: activity coefficient. Bins: class 1: < 4; class 2: ≥ 4 and < 9; class 3: ≥ 9

Hey, which category is C=CCCCCCCCC [1-decene] + CCCC[n+]1ccccc1.O=S(=O)([N-]S(=O)(=O)C(F)(F)F)C(F)(F)F in, do you know?
class 3

Hey, which category is CCCO [propan-1-ol] + CC[n+]1ccccc1.O=S(=O)([N-]S(=O)(=O)C(F)(F)F)C(F)(F)F in, do you know?
class 1

Hey, which category is C=CCCCCCC [oct-1-ene] + CC[n+]1ccccc1.O=S(=O)([N-]S(=O)(=O)C(F)(F)F)C(F)(F)F in, do you know?
class 3

Hey, which category is C=CCCCC [hex-1-ene] + CC[n+]1ccccc1.O=S(=O)([N-]S(=O)(=O)C(F)(F)F)C(F)(F)F in, do you know?
class 2

Hey, which category is C#CCCCCC [1-heptyne] + CC[n+]1ccccc1.O=S(=O)([N-]S(=O)(=O)C(F)(F)F)C(F)(F)F in, do you know?
class 2

Hey, which category is CCCCCCCC [octane] + CC[n+]1ccccc1.O=S(=O)([N-]S(=O)(=O)C(F)(F)F)C(F)(F)F in, do you know?
class 3

Hey, which category is C#CCCCC [1-hexyne] + CC[n+]1ccccc1.O=S(=O)([N-]S(=O)(=O)C(F)(F)F)C(F)(F)F in, do you know?
class 1

Hey, which category is C=CCCCCCCCC [1-decene] + CC[n+]1ccccc1.O=S(=O)([N-]S(=O)(=O)C(F)(F)F)C(F)(F)F in, do you know?
class 3

Hey, which category is CO [methanol] + CC[n+]1ccccc1.O=S(=O)([N-]S(=O)(=O)C(F)(F)F)C(F)(F)F in, do you know?
class 1

Hey, which category is CCO [ethanol] + CC[n+]1ccccc1.O=S(=O)([N-]S(=O)(=O)C(F)(F)F)C(F)(F)F in, do you know?
class 1

Hey, which category is CCCCCC [hexane] + CC[n+]1ccccc1.O=S(=O)([N-]S(=O)(=O)C(F)(F)F)C(F)(F)F in, do you know?
class 2

Hey, which category is CCCCCCC [heptane] + CC[n+]1ccccc1.O=S(=O)([N-]S(=O)(=O)C(F)(F)F)C(F)(F)F in, do you know?
class 3

Hey, which category is CC1CCCCC1 [methylcyclohexane] + CC[n+]1ccccc1.O=S(=O)([N-]S(=O)(=O)C(F)(F)F)C(F)(F)F in, do you know?
class 2
